Tested on: NCI-H322M lung
METHOD_SUMMARY: NCI-60 one-dose screen, 48 h
CONDITION_DESCRIPTION: 10 µM unless noted
About 83,000 compounds went through this panel and 20% of them were active in at least one assay; those are over-represented in the sample as a whole. Active and inactive are the calls of the source. Rule for the calls: active = growth percent below 10; inactive = the rest.
Parameter call: string, one of yes for active, no for inactive

Kindly provide the recorded test outcome for the following molecule: `CCOC(=O)c1c(NC(=O)c2cccc(C(F)(F)F)c2)sc2c(CN3CCN(C)CC3)c(O)ccc12`
yes

* * *

Here the recorded growth is given for each entry.
Tested on: HOP-92 NSCLC
METHOD_SUMMARY: NCI-60 one-dose screen, 48 h (100 = growth as untreated, 0 = no growth, -100 = all killed)
CONDITION_DESCRIPTION: 10 µM unless noted
The panel holds about 83,000 compounds, 20% with a hit somewhere; the sample as a whole holds those more often.
// return numeric value only (unit: %, not printed)

The following molecules have reported results that may help.
{"MOLECULE": "COc1ccc(C(=O)c2c(N)c(C#N)cn2-c2cccc(OC)c2)cc1", "EXPERIMENTAL_VALUE": 21.7}
{"MOLECULE": "O=C(CSc1nnc(-c2ccc(Cl)cc2)n1-c1ccccc1)Nc1ccc(F)cc1", "EXPERIMENTAL_VALUE": 99.2}
{"MOLECULE": "CSc1ccc(/C(=N/N=C(N)N)c2ccccc2)cc1", "EXPERIMENTAL_VALUE": 34.4}
{"MOLECULE": "O=C1c2c(c3c4cc(Br)ccc4[nH]c3c3ccc4ccccc4c23)C(=O)N1CCN1CCNCC1", "EXPERIMENTAL_VALUE": 82.5}
{"MOLECULE": "COc1ccc2c(c1)c(-c1nn3c(=O)cc(-c4ccccc4)nc3s1)cn2C", "EXPERIMENTAL_VALUE": 18.7}

Item: `IP(CCCSc1n(Cc2ccc3ccccc3c2)c(-c2ccccc2)c(-c2ccccc2)[n+]1Cc1ccc2ccccc2c1)(c1ccccc1)(c1ccccc1)c1ccccc1` | growth: -1.48

Item: `CC1(C)CC[C@]2(C(=O)N3CCCNCC3)CC[C@]3(C)C(=CC[C@@H]4[C@@]5(C)CCC(=O)C(C)(C)[C@@H]5CC[C@]43C)[C@H]2C1` | growth: 96.6

Item: `Oc1ccc(CSc2nnc(-c3cnccn3)n2-c2ccccc2)c2cccnc12` | growth: -3.39

Item: Cc1ccc(C2CC(c3ccc(Nc4nc(NCCO)nc(Nc5ccc(Cl)cc5)n4)cc3)=Nc3c(N)nc(N)nc3N2)cc1 (stereo unspecified) | growth: 53.4

Item: `COc1ccc2oc3c4[nH]c5ccccc5c4c4c(c3c2c1)C(=O)N(O)C4=O` | growth: 81

Item: `C=C1C(=O)O[C@@H]2C[C@@H](C)CCC(=O)[C@](C)(OC(C)=O)C[C@H](OC(=O)/C(C)=C\C)[C@@H]12` | growth: 80

* * *

Test system: UACC-257 melanoma
METHOD_SUMMARY: NCI-60 one-dose screen, 48 h (100 = growth as untreated, 0 = no growth, -100 = all killed)
CONDITION_DESCRIPTION: 10 µM
Compounds without any hit were thinned out: in the full panel of roughly 83,000, 20% have a hit.
Here the recorded growth is given for each entry.
// return numeric value only (unit: %, not printed)

The following compounds have reported results that may help.
{"COMPOUND": "Nc1c(C(=O)c2ccccc2)sc2nc(-c3cnccn3)cc(-c3cccs3)c12", "MEASURED_ON": "UACC-257 melanoma", "VALUE_UNITS": "%", "growth": 103}
{"COMPOUND": "CCc1ccc(NC(=O)N[C@@H](Cc2cccc(C)c2)C(=O)N[C@@H]2C(=O)N3CCC[C@H]3C(=O)N3CCCC[C@H]3C(=O)N[C@@H](CO)C(=O)N3C[C@H](C)C[C@H]3C(=O)O[C@H]2C)c(F)c1", "MEASURED_ON": "UACC-257 melanoma", "VALUE_UNITS": "%", "growth": 15}
{"COMPOUND": "Cc1ccc(-c2cc(-c3cccc4ccccc34)n3c(n2)nc2ccccc23)cc1", "MEASURED_ON": "UACC-257 melanoma", "VALUE_UNITS": "%", "growth": 75.1}
{"COMPOUND": "C#CCOc1ccc(C(Nc2cc(Cl)ccc2Cl)c2nnnn2C2CCCCC2)cc1 (configuration not stated)", "MEASURED_ON": "UACC-257 melanoma", "VALUE_UNITS": "%", "growth": 102}
{"COMPOUND": "C#C[C@]1(O)CC[C@H]2[C@@H]3CC=C4c5sc(Nc6cccc(Cl)n6)nc5CC[C@]4(C)[C@H]3CC[C@@]21C", "MEASURED_ON": "UACC-257 melanoma", "VALUE_UNITS": "%", "growth": -64.3}

Item: `COc1cc(O)c2c(c1)/C=C/C[C@H](O)[C@H](O)C(=O)/C=C\C[C@H](C)OC2=O` | growth: -19.7

Item: O=S(=O)(NC1CC2CCC1C2)c1ccc2c(c1)C(=NO)c1cc(S(=O)(=O)NC3CC4CCC3C4)ccc1-2 (configuration not stated) | growth: 105

Item: `C[C@H]1[C@H](C)CC[C@]2(COC(=O)c3cccnc3)CC[C@]3(C)C(=CC[C@@H]4[C@@]5(C)CCCNC(C)(C)[C@@H]5CC[C@]43C)[C@H]12` | growth: 65.7

Item: `O=c1oc2ccc(-c3ccc(F)cc3F)cc2c(=O)n1-c1cccc(C(F)(F)F)c1` | growth: -9.2

Item: `O=C(Nc1ccc(Cl)cc1)Nc1nc2ccc([N+](=O)[O-])cc2s1` | growth: -32.6
